# SYSTEM UNDER TEST: ErbB2 with Exon 20 YVMA insertion (HER2-YVMA) (Homo sapiens (Human), UniProt P04626, INS775YVMA)
# Sequence (P04626 other isoform, or with tags, fused parts or gaps ins YVMA behind 775): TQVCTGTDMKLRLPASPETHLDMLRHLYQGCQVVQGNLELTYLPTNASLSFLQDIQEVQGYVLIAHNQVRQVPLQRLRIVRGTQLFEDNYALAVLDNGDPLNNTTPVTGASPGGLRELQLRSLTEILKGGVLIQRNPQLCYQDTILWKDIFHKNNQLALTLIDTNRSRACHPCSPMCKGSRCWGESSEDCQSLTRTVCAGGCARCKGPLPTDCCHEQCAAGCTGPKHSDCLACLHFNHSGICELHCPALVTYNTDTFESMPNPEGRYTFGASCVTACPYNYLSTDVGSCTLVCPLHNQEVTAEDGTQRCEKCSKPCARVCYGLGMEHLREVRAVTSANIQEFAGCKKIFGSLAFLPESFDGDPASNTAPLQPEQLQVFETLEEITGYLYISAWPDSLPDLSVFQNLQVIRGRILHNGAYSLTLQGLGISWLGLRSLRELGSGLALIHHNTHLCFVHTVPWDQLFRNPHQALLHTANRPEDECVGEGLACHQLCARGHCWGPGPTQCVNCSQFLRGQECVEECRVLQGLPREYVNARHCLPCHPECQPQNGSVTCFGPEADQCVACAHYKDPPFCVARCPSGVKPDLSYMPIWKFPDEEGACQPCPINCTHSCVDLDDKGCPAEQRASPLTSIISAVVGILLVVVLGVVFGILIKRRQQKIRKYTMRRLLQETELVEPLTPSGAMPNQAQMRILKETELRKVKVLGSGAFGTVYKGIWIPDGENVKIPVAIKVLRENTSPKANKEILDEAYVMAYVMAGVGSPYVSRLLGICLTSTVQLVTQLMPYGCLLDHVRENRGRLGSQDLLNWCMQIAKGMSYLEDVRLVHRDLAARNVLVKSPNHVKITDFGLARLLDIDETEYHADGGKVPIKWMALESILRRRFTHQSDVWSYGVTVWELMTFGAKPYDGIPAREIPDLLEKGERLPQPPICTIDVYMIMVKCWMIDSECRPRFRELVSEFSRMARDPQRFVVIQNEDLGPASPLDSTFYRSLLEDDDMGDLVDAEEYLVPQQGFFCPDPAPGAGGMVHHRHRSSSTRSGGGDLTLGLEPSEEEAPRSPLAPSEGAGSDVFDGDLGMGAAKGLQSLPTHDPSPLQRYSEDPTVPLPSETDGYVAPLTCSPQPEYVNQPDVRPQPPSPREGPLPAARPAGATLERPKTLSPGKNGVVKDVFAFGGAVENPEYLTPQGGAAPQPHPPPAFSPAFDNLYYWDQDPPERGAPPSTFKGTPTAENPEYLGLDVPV
# EXPERIMENT SUMMARY: Cellular Phosphorylation Assay, Assay 4 (constitutive ErbB2 phosphorylation, NIH 3T3 cells)
# Type: cell-based
# EXPERIMENTAL CONDITIONS: cellular ErbB2 YVMA phosphorylation
# pIC50 annotations
Quick note: pIC50 values are minus log10 of concentrations in mol/L.

The following molecules have reported results that may help.
MOLECULE: C=CC(=O)N1C[C@H](c2ccc3ncnc(Nc4ccc(Oc5ccn6ncnc6c5)c(C)c4F)c3n2)C[C@H]1COC (mixture of isomers) [Example 306]
pIC50: 7.69
--
MOLECULE: C=CC(=O)N1C[C@H]2C[C@@H]1[C@H](c1ccc3ncnc(Nc4cc(C)c(Oc5ccc6c(c5)ncn6C)cc4F)c3n1)C2 [Example 374]
pIC50: 7.69

Challenge: Fill in pIC50 for record C=CC(=O)N1CCN(c2ccc3ncnc(Nc4ccc(Oc5ccn6ncnc6c5)c(C)c4F)c3n2)C[C@@H]1C(F)F (racemic) [Example 297]
Response given: 7.89

Challenge: Fill in pIC50 for record C=CC(=O)N1CCCCC(c2ccc3ncnc(Nc4ccc(Oc5ccn6ncnc6c5)c(C)c4F)c3n2)C1 (stereo not drawn) [Example 377]
Response given: 7.79

Challenge: Fill in pIC50 for record C=CC(=O)N1CCCN(c2ccc3ncnc(Nc4cc(C)c(Oc5ccn6ncnc6c5)cc4F)c3n2)CC1(C)C [Example 260]
Response given: 6.94

Challenge: Fill in pIC50 for record C=CC(=O)N1CCC12CN(c1ccc3ncnc(Nc4cc(Cl)c(Oc5ccn6ncnc6c5)cc4F)c3n1)C2 [Example 343]
Response given: 8.03

* * *

# SYSTEM UNDER TEST: ErbB2 with Exon 20 YVMA insertion (HER2-YVMA) (Homo sapiens (Human), UniProt P04626, INS775YVMA)
# EXPERIMENT SUMMARY: Cellular Phosphorylation Assay, Assay 4 (constitutive ErbB2 phosphorylation, NIH 3T3 cells)
# Format: cell-based
# EXPERIMENTAL CONDITIONS: cellular ErbB2 YVMA phosphorylation
Hi! Could you tag entries with IC50 below 20 nM as t, and those at or above as f? Much appreciated.

Example cases with answers are listed next.
COMPOUND: C=CC(=O)N1[C@@H]2CCC[C@H]1[C@@H](c1ccc3ncnc(Nc4cc(C)c(Oc5ccn6ncnc6c5)cc4F)c3n1)C2
CLASS ASSIGNMENT: f

COMPOUND: C=CC(=O)N1C[C@H]2C[C@@H]1CN(c1ccc3ncnc(Nc4cc(Cl)c(Oc5cnc6c(c5)ncn6C)cc4F)c3n1)C2
CLASS ASSIGNMENT: f

COMPOUND: C=CC(=O)N1CCN(c2ccc3ncnc(Nc4cc(C)c(Oc5ccn6ncnc6c5)cc4F)c3n2)CC12CC2
CLASS ASSIGNMENT: t

COMPOUND: C=CC(=O)N1C[C@@H]2CC[C@H]1CN(c1ccc3ncnc(Nc4ccc(Oc5ccn6ncnc6c5)c(C)c4F)c3n1)C2 (racemic)
CLASS ASSIGNMENT: t

COMPOUND: C=CC(=O)N1CCN(c2ccc3ncnc(Nc4cc(C)c(Oc5cnc6c(c5)ncn6C)cc4F)c3n2)CC1(C)C
CLASS ASSIGNMENT: t

COMPOUND: C=CC(=O)N1CCCC(c2ccc3ncnc(Nc4cc(C)c(Oc5ccn6ncnc6c5)cc4F)c3n2)CC1 (stereo not shown)
CLASS ASSIGNMENT: f

Please turn your attention to the following entry.
Challenge: Quick check: does `C=CC(=O)N1CCN(c2ccc3ncnc(Nc4cc(Cl)c(Oc5ccn6ncnc6c5)cc4F)c3n2)C[C@H]1COC` have IC50 under 20 nM?
Response given: t

* * *

# SYSTEM UNDER TEST: ErbB2 with Exon 20 YVMA insertion (HER2-YVMA) (Homo sapiens (Human), UniProt P04626, INS775YVMA)
# EXPERIMENT SUMMARY: Cellular Phosphorylation Assay, Assay 4 (constitutive ErbB2 phosphorylation, NIH 3T3 cells)
# Type: cell-based
# EXPERIMENTAL CONDITIONS: ErbB2 YVMA phosphorylation
OBSERVED PROPERTY: IC50 (µM)
Please reply with the bare figure in µM and do not write the unit itself.

MOLECULE: C=CC(=O)N1CCC[C@@H](c2ccc3ncnc(Nc4ccc(Oc5ccc6c(c5)ncn6C)c(C)c4F)c3n2)CC1 (racemic)
OBSERVED PROPERTY: IC50
RECORDED NUMBER: 0.023

MOLECULE: C=CC(=O)N1C[C@H]2C[C@H](c3ccc4ncnc(Nc5cc(C)c(Oc6ccc7c(c6)ncn7C)cc5F)c4n3)C[C@H]2C1
OBSERVED PROPERTY: IC50
RECORDED NUMBER: 0.0286

MOLECULE: C=CC(=O)N1CCN(c2ccc3ncnc(Nc4ccc(Oc5ccn6ncnc6c5)c(C)c4F)c3n2)C[C@@H]1C1CC1 (racemic)
OBSERVED PROPERTY: IC50
RECORDED NUMBER: 0.0188

Challenge: Fill in IC50 for record `C=CC(=O)N1CCC(Sc2ccc3ncnc(Nc4ccc(Oc5ccn6ncnc6c5)c(Cl)c4F)c3n2)CC1`
Response given: 0.0281

Challenge: Fill in IC50 for record `C=CC(=O)N1CCN(c2ccc3ncnc(Nc4ccc(Oc5ccc6c(c5)ncn6C)c(C)c4F)c3n2)CCC1(C)C`
Response given: 0.0738

Challenge: Fill in IC50 for record C=CC(=O)N1CCCC(c2ccc3ncnc(Nc4ccc(Oc5ccc6c(c5)ncn6C)c(C)c4)c3n2)CC1 (centres unmarked)
Response given: 0.0091

Challenge: Fill in IC50 for record `C=CC(=O)N1[C@H](C)CN(c2ccc3ncnc(Nc4cc(C)c(Oc5ccc6c(c5)ncn6C)cc4F)c3n2)C[C@@H]1C`
Response given: 0.0198

Challenge: Fill in IC50 for record `C=CC(=O)N1C[C@@H]2C[C@H]1CN(c1ccc3ncnc(Nc4cc(C)c(Oc5ccc6c(c5)ncn6C)cc4F)c3n1)C2`
Response given: 0.0154

Challenge: Fill in IC50 for record `C=CC(=O)N1C[C@H](c2ccc3ncnc(Nc4ccc(Oc5ccc6c(c5)ncn6C)c(C)c4F)c3n2)CC[C@H]1C`
Response given: 0.0236

* * *

# SYSTEM UNDER TEST: BCRP (Homo sapiens (Human))
# Sequence (Q9UNQ0 whole entry): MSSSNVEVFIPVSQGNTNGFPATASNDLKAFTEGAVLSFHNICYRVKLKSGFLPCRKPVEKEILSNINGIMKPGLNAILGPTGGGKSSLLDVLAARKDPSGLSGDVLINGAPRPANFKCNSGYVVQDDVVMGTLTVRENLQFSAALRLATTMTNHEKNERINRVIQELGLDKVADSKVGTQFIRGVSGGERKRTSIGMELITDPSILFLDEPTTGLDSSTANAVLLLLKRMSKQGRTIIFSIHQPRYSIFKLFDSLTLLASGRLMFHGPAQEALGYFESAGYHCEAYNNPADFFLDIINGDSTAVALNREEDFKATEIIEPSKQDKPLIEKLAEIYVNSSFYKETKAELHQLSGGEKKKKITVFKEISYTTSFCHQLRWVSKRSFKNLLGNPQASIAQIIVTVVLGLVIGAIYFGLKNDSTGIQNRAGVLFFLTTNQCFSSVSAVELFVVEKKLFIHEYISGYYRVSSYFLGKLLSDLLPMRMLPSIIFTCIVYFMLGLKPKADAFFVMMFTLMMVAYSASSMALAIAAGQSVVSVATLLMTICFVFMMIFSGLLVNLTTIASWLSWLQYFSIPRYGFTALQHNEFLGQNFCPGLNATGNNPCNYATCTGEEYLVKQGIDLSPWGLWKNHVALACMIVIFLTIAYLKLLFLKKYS
# EXPERIMENT SUMMARY: BCRP MDCKII efflux assay (Assay 7)
# Format: in vitro ADME
# EXPERIMENTAL CONDITIONS: dog; efflux ratio Papp(B-A)/Papp(A-B), BCRP MDCKII cells; read-out: Assay 7 Pe Ratio
OBSERVED PROPERTY: efflux ratio at 2 h, 1 µM
Answer as a number with no unit attached.

The following molecules have reported results that may help.
MOLECULE: C=CC(=O)N1CC[C@@H](c2ccc3ncnc(Nc4cc(C)c(Oc5ccc6c(c5)ncn6C)cc4F)c3n2)C1 (racemic)
OBSERVED PROPERTY: efflux ratio at 2 h, 1 µM
RECORDED NUMBER: 7.9
//
MOLECULE: C=CC(=O)N1CCN(c2ccc3ncnc(Nc4ccc(Oc5ccn6ncnc6c5)c(Cl)c4F)c3n2)C[C@@H]1C1CC1
OBSERVED PROPERTY: efflux ratio at 2 h, 1 µM
RECORDED NUMBER: 1.7
//
MOLECULE: C=CC(=O)N1CCN(c2ccc3ncnc(Nc4cc(C)c(Oc5ccc6c(c5)ncn6C)cc4F)c3n2)CC12CC2
OBSERVED PROPERTY: efflux ratio at 2 h, 1 µM
RECORDED NUMBER: 8.9
//
MOLECULE: C=CC(=O)N1C[C@H]2C[C@@H]1[C@H](c1ccc3ncnc(Nc4ccc(Oc5ccn6ncnc6c5)c(Cl)c4F)c3n1)C2
OBSERVED PROPERTY: efflux ratio at 2 h, 1 µM
RECORDED NUMBER: 4.3
//
MOLECULE: C=CC(=O)N1C[C@@H]2CC(c3ccc4ncnc(Nc5ccc(Oc6ccn7ncnc7c6)c(C)c5F)c4n3)C[C@H]1C2 (stereo partly shown)
OBSERVED PROPERTY: efflux ratio at 2 h, 1 µM
RECORDED NUMBER: 11.8
//
MOLECULE: C=CC(=O)N1CCCC(c2ccc3ncnc(Nc4ccc(Oc5ccn6ncnc6c5)c(C)c4)c3n2)CC1 (stereo not shown)
OBSERVED PROPERTY: efflux ratio at 2 h, 1 µM
RECORDED NUMBER: 5.5

Read the next record carefully.
Challenge: State measured efflux ratio at 2 h, 1 µM of the molecule `C=CC(=O)N1CCN(c2ccc3ncnc(Nc4ccc(Oc5cnc6c(c5)ncn6C)c(Cl)c4)c3n2)CC1(C)C` with BCRP (Homo sapiens (Human)).
Response given: 5.9

* * *

# SYSTEM UNDER TEST: EGFR wild type (EGFR WT) (Homo sapiens (Human), UniProt P00533)
# Sequence (P00533 25-1210): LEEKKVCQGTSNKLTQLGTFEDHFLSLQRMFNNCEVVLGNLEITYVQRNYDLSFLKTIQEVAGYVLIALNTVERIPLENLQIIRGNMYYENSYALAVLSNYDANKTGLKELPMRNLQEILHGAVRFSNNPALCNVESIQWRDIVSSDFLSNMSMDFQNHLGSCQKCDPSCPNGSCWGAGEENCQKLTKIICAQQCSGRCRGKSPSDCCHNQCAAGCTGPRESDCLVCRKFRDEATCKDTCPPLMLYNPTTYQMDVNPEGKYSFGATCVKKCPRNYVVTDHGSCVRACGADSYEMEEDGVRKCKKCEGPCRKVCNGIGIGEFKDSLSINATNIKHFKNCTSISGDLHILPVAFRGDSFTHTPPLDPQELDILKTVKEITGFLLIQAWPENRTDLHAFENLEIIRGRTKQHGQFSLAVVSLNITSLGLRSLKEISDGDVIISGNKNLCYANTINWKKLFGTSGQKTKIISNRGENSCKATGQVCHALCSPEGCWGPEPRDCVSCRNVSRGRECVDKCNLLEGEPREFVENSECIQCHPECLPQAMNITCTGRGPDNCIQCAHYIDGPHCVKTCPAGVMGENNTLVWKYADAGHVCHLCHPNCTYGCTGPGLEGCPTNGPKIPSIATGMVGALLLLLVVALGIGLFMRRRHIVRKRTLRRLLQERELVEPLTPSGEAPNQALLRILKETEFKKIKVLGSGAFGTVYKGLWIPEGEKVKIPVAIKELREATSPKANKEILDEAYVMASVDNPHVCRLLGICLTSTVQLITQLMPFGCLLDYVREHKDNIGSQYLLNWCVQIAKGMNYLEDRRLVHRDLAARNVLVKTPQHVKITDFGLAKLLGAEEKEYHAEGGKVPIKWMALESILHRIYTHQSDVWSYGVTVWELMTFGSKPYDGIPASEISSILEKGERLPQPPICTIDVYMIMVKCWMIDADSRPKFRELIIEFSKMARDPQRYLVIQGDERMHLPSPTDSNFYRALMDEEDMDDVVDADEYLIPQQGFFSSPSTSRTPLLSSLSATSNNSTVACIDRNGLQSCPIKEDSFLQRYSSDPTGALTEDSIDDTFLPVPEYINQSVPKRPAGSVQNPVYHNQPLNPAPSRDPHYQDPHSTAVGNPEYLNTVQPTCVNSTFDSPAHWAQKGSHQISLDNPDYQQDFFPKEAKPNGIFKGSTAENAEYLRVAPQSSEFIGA
# EXPERIMENT SUMMARY: Cellular Phosphorylation Assay, Assay 5 (EGF-stimulated EGFR phosphorylation, NIH 3T3 cells)
# Format: cell-based
# EXPERIMENTAL CONDITIONS: EGF-stimulated EGFR WT phosphorylation
OBSERVED PROPERTY: pIC50
Quick note: pIC50 values are minus log10 of concentrations in mol/L.

The following molecules have reported results that may help.
MOLECULE: C=CC(=O)N1CCN(c2ccc3ncnc(Nc4cc(C)c(Oc5ccn6ncnc6c5)cc4F)c3n2)CC1(C)C [Example 73]
RECORDED NUMBER: 5.62
--
MOLECULE: C=CC(=O)N1CCC(Oc2ccc3ncnc(Nc4ccc(Oc5ccn6ncnc6c5)c(C)c4)c3n2)CC1 [Example 1]
RECORDED NUMBER: 6.00
--
MOLECULE: C=CC(=O)N1CCC(Oc2ccc3ncnc(Nc4ccc(Oc5ccn6ccnc6c5)c(C)c4)c3n2)CC1 [Example 15]
RECORDED NUMBER: 6.26
--
MOLECULE: C=CC(=O)N1CCC[C@@H](c2ccc3ncnc(Nc4ccc(Oc5ccc6c(c5)ncn6C)c(C)c4F)c3n2)C1 (racemic) [Example 144]
RECORDED NUMBER: 5.97
--
MOLECULE: C=CC(=O)N1C[C@H]2C[C@@H]1CN2c1ccc2ncnc(Nc3ccc(Oc4ccn5ncnc5c4)c(Cl)c3F)c2n1 [Example 92]
RECORDED NUMBER: 5.73

Read the next record carefully.
Challenge: Fill in pIC50 for record C=CC(=O)N1C[C@H](c2ccc3ncnc(Nc4ccc(Oc5ccc6c(c5)ncn6C)c(C)c4F)c3n2)CCC1(C)C (racemic) [Example 36]
Response given: 5.77

Values were extracted from patent US12447153B2.
